# System: M. tuberculosis H37Rv growth inhibition, glycerol-free medium
# assay_method_text: confirmation, H37Rv, purified and synthesized compounds, set 4 (AID 504860)
parameter_measured: IC90

Completed entries (count: 6):
CC(C)CCNC(=O)CSc1nc2c(c(=O)[nH]1)CCC2 : 2690 nM
O=C(CSc1nc2ccccc2c(=O)[nH]1)NC1CCCCC1 : 520 nM
Nc1c(C(=O)NC2CCCCC2)nsc1C(=O)OCC(=O)NC1CCCCC1 : 8130 nM
O=C(CSc1nc2c(c(=O)[nH]1)CCC2)NC1CCCCC1 : < 10 nM
Cc1cccc(/C=C/C(=O)c2ccc([N+](=O)[O-])o2)c1 : 2220 nM
CC(C)CCNC(=O)CSc1nc2ccccc2c(=O)[nH]1 : 210 nM

Could I get IC90 for every one of these entries?
1. CC(C)NC(=O)CSc1nc2ccccc2c(=O)[nH]1
2. O=C(CSc1nc2ccccc2c(=O)[nH]1)NCc1ccc(Cl)cc1
3. O=C(CSc1nc2ccccc2c(=O)[nH]1)NC1CCCC1

1: 19300 nM; 2: 1580 nM; 3: 850 nM

Could I get IC90 for every one of these entries?
1. Cc1ccc(C(=O)N/N=C(/CC(=O)c2cccs2)C(F)(F)F)cc1
2. CC1CCN(C(=O)C2CCN(c3nnc(-n4cccc4)s3)CC2)CC1

["2830 nM", "7330 nM"]

---

Provide the recorded inhibition for the entries that follow.
# assay_method_text: confirmation, H37Rv, purified and synthesized compounds, set 4 (AID 504860)
# condition_info: M. tuberculosis H37Rv growth inhibition, glycerol-free medium; at 100 µM (top of the series)
Numbers only, in %.

Could I get inhibition for every one of these entries?
1. CN1CCC(NC(=O)CSc2nc3ccccc3c(=O)[nH]2)CC1
2. Cc1[nH]c(=S)[nH]c(=O)c1C
3. CC1CCN(C(=O)CSc2nc3ccccc3c(=O)[nH]2)CC1

8.01
6.28
8.81

---

# assay_method_text: confirmation, H37Rv, purified and synthesized compounds, set 4 (AID 504860)
# condition_info: M. tuberculosis H37Rv growth inhibition, glycerol-free medium; at 100 µM (top of the series)
parameter_measured: inhibition (%)
One number for each entry, in %.

CN(C)C(=O)CSc1nc2ccccc2c(=O)[nH]1 : 9.4

Could I get inhibition for every one of these entries?
1. Cn1c(SCC(=O)NC2CCCCC2)nc2ccccc2c1=O
2. Cc1cc(=O)[nH]c(SCC(=O)NC2CCCCC2)n1
3. Cc1nc(SCc2ccccc2Cl)[nH]c(=O)c1C
4. CCSc1nc(C)c(C)c(=O)[nH]1
5. CN(C(=O)CSc1nc2ccccc2c(=O)[nH]1)C1CCCCC1

[6.07, -0.61, 6.97, 2.48, 9.68]

Could I get inhibition for every one of these entries?
1. COc1ccc(NC(=O)CSc2nc3ccccc3c(=O)[nH]2)cc1
2. Cc1nc(SCC(N)=O)[nH]c(=O)c1C
3. O=c1[nH]c(=S)[nH]c2ccccc12
4. Cc1nc(SCC(=O)N(C)c2ccccc2)[nH]c(=O)c1C
5. COc1cccc(NC(=O)CSc2nc3ccccc3c(=O)[nH]2)c1

[11.4, 4.67, 2.16, 6.73, 4.59]

Could I get inhibition for every one of these entries?
1. Nc1cc(=O)[nH]c(SCC(=O)NC2CCCCC2)n1
2. O=C(CSc1ccccn1)NC1CCCCC1
3. Cc1c[nH]c(=S)[nH]c1=O

1: -0.72; 2: 6.13; 3: 2.03

Could I get inhibition for every one of these entries?
1. NC(=O)CSc1nc2ccccc2c(=O)[nH]1
2. COC(=O)C(Nc1nc(SCC(=O)NC2CCCCC2)nc2ccccc12)c1ccccc1 (stereo not drawn)
3. Cc1cc(=O)[nH]c(=S)[nH]1
4. CCC(Sc1nc2ccccc2c(=O)[nH]1)C(=O)Nc1cccc(OC)c1 (stereo not drawn)

1. 10.4
2. 5.93
3. -3.23
4. 14.3

Could I get inhibition for every one of these entries?
1. Cc1ccc(NC(=O)CSc2nc3ccccc3c(=O)[nH]2)cc1Cl
2. O=C(CSc1nc2ccccc2c(=O)[nH]1)N1CCOCC1
3. CCOC(=O)CSc1nc(C)c(C)c(=O)[nH]1
4. CCC(Sc1nc2c(c(=O)[nH]1)CCC2)C(=O)Nc1cccc(OC)c1 (stereo not drawn)

1. 7.6
2. 11.1
3. 8.77
4. -0.78

Entry CCC(Sc1nc2ccccc2c(=O)[nH]1)C(=O)NC1CCCCC1 (stereo not drawn) — recorded inhibition = 3.23
